biological target: Fgr (h) (Homo sapiens); assay: biochemical
Sequence (P09769 whole entry): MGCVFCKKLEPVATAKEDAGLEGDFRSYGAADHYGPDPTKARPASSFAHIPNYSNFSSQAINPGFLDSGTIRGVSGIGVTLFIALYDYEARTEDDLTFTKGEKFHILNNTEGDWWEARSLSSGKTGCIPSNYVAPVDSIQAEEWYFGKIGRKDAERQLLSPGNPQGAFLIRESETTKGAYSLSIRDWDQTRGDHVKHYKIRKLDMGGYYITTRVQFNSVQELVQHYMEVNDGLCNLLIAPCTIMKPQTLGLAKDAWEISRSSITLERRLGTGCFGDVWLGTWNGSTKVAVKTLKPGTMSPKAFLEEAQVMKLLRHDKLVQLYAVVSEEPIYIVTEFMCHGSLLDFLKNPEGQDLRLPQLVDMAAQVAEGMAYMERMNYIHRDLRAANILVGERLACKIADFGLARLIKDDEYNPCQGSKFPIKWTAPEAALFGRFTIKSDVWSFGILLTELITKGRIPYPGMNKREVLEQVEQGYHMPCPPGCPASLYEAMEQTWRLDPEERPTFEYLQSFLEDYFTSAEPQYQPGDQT
Where no end group is shown, it is not given here.
readout: IC50 (µM)
Numeric only. Scale: µM

Data request: Would you mind telling me what IC50 value was observed for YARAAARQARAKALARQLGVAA [MMI-0100] ?
Data returned: 141

---

molecular target: CaMK1δ (h) (Homo sapiens, UniProt Q8IU85); assay: biochemical
Sequence (Q8IU85 whole entry): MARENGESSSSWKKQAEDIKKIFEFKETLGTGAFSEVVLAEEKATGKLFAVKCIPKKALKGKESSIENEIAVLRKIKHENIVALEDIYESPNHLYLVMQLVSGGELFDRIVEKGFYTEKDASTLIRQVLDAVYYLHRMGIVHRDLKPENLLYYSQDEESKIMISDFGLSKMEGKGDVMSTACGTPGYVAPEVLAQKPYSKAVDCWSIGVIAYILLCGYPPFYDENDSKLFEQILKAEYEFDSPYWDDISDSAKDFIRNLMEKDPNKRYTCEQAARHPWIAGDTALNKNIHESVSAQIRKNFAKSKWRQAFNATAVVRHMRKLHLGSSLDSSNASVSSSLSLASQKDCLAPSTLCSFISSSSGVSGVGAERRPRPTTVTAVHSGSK
Where no end group is shown, it is not given here.
readout: pIC50
The scale used: pIC50 is minus the common logarithm of the concentration in molar units.

Data request: Would you mind telling me what pIC50 value was observed for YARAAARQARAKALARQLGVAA [MMI-0100] ?
Data returned: 4.34
